// data source = patent US10202593B2

# System: LPETG (Abz-LPETGK(Dnp)-CONH2)
# protocolNotes: In vitro sortase kinetics HPLC assay, LPETG substrate
# Format: biochemical
# particulars: Table 2; Sub LPETG
observedProperty: Kcat (Hz)
Give bare numbers, in Hz.

| molecule | units | result |
| --- | --- | --- |
| eSrtA(4S-9): P94R, N98D, S102C, A104V, A118T, F122A, K134R, F144L, D160N, D165A, I182V, E189F, K190E, K196T (protein) QAKPQIPKDKSKVAGYIEIPDADIKEPVYPGPATREQLDRGVCFVEENESLDDQNISITGHTAIDRPNYQFTNLRAAKKGSMVYLKVGNETRKYKMTSIRNVKPTAVEVLDEQKGKDKQLTLVTCDDYNFETGVWETRKIFVATEVK | Hz | 0.047 |
| eSrtA (protein) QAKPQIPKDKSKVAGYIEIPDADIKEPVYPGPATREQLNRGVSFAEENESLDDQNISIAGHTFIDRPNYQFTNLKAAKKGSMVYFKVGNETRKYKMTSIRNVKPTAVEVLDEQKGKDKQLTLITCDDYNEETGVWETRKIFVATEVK | Hz | 5.4 |
| SrtA: wild-type Staphylococcus aureus sortase A (SEQ ID NO: 1) (protein, S. aureus) MKKWTNRLMTIAGVVLILVAAYLFAKPHIDNYLHDKDKDEKIEQYDKNVKEQASKDKKQQAKPQIPKDKSKVAGYIEIPDADIKEPVYPGPATPEQLNRGVSFAEENESLDDQNISIAGHTFIDRPNYQFTNLKAAKKGSMVYFKVGNETRKYKMTSIRDVKPTDVEVLDEQKGKDKQLTLITCDDYNEKTGVWEKRKIFVATEVK | Hz | 1.5 |

Okay, now this molecule:
Task item: Entry eSrtA(2A-9): P94R, S102C, A104H, E105D, K138P, K152I, N160K, K162H, T164N, D165A, K173E, I182V, K190E, T196S (protein) QAKPQIPKDKSKVAGYIEIPDADIKEPVYPGPATREQLNRGVCFHDENESLDDQNISIAGHTFIDRPNYQFTNLKAAKPGSMVYFKVGNETRIYKMTSIRKVHPNAVEVLDEQEGKDKQLTLVTCDDYNEETGVWESRKIFVATEVK needs its Kcat (Hz) filled in; supply it.
Reply: 0.0209
